- Assay protocol: physchem
- Type: physicochemical
- Description: The partition coefficient (P) is defined as the ratio of the concentrations (C) to the equilibrium of a dissolved and highly diluted substance in a biphasic system consisting of two almost immiscible solvents. In the case of n-octanol and water: The partition coefficient P is the quotient of two concentrations, it is generally indicated in its logarithmic form, base 10 (LogP). […]
Endpoint: chromatographic logP

>  <Molecule>
C/C(C=O)=C\c1ccccc1

>  <Endpoint>
chromatographic logP

>  <Observed>
2.56

$$$$
>  <Molecule>
O=C/C=C/c1ccccc1 [(E)-3-Phenyl-2-propenal]

>  <Endpoint>
chromatographic logP

>  <Observed>
1.5

$$$$
>  <Molecule>
OC/C=C/c1ccccc1

>  <Endpoint>
chromatographic logP

>  <Observed>
1.79

$$$$
>  <Molecule>
Cc1ccc(C(C)C)c(O)c1

>  <Endpoint>
chromatographic logP

>  <Observed>
2.57

$$$$
>  <Molecule>
CCC/C=C/CO

>  <Endpoint>
chromatographic logP

>  <Observed>
1.73

$$$$
>  <Molecule>
CC(CCO)CCc1ccccc1 (racemic) [(+-)-3-methyl-5-phenyl-1-pentanol]

>  <Endpoint>
chromatographic logP

>  <Observed>
3

$$$$
>  <Molecule>
Cc1ccc(O)cc1

>  <Endpoint>
chromatographic logP

>  <Observed>
1.52

$$$$
>  <Molecule>
CC(C)c1ccc(CO)cc1

>  <Endpoint>
chromatographic logP

>  <Observed>
2.23

$$$$

// data source = patent US20230105693A1
